system: P12-Ichikawa; experiment: cell viability relative to DMSO control; higher = less cytotoxic; settings: RPMI 5 mM glucose + 10% dialyzed FBS; 48 h; 0.00702 µM
experimental readout: cell viability (%)

compound	system	experimental readout	numeric readout
O=C1CCc2cc(OCCCCc3nnnn3C3CCCCC3)ccc2N1	P12-Ichikawa	cell viability	90
O=C1C(CCC(O)c2ccc(F)cc2)C(c2ccc(O)cc2)N1c1ccc(F)cc1 (stereo not drawn)	P12-Ichikawa	cell viability	105
CC(=O)[C@H]1CC[C@H]2[C@@H]3C/C=C4/C[C@@H](O)CC[C@]4(C)[C@H]3CC[C@]12C	P12-Ichikawa	cell viability	129
O=C(c1ccc(C(=O)N2CCC(N3CCCC3)CC2)c(Nc2ccccc2)c1)N1CCC(N2CCCC2)CC1	P12-Ichikawa	cell viability	95.9
NC(=O)[C@@H](CCC(F)(F)F)N(Cc1ccc(-c2ncon2)cc1F)[S+](=O)([O-])c1ccc(Cl)cc1	P12-Ichikawa	cell viability	96.5
CC[C@@H](C)[C@H](NC(=O)[C@H](CC1CCCCC1)NC(=O)c1ccno1)C(=O)N1CCC2(CCc3ccccc32)CC1	P12-Ichikawa	cell viability	83.2
COc1c(C)c2c(c(O)c1C/C=C(\C)CCC(=O)OCCN1CCOCC1)C(=O)OC2	P12-Ichikawa	cell viability	100
CNC(=O)c1cc(COc2nnc(Nc3ccc(Cl)cc3)c3ccoc23)ccn1	P12-Ichikawa	cell viability	108
